assay: Selectivity index, ratio of IC50 for African green monkey Vero cells to IC50 for antiviral activity against SARS-CoV 2 nCoV-2019BetaCoV/Wuhan/WIV04/2019; assay type: toxicity; conditions: read-out: Ratio IC50
Reported Property: selectivity ratio

Task item: Please look up its selectivity ratio: NC(=O)c1ncn([C@@H]2O[C@H](CO)[C@@H](O)[C@H]2O)n1
Reply: > 3.65

====

experiment: Cytotoxicity against African green monkey Vero cells by CCK8 assay method; assay type: toxicity, cell-based; settings: chlorocebus sabaeus
Reported Property: CC50

Task item: // query CC50 value for entry NC(=O)c1ncn([C@@H]2O[C@H](CO)[C@@H](O)[C@H]2O)n1
Reply: > 400 µM
